Target protein (sequence): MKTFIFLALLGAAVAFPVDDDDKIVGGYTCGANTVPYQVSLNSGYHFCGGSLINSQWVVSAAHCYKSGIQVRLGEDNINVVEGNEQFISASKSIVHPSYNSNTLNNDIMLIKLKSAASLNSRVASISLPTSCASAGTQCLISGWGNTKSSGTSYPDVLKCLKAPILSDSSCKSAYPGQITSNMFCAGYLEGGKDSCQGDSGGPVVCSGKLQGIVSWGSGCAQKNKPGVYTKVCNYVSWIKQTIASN
endpoint: Ki

Look up Ki of `O=C1[C@@H](NS(=O)(=O)c2cc3ncccc3s2)CCN1Cc1cc2ccncc2[nH]1` and report it. > 2900 nM

----------
Target: Prothrombin (Homo sapiens, UniProt P00734)
endpoint: Ki

Find Ki for `O=C1[C@@H](NS(=O)(=O)c2cc3ncccc3s2)CCN1Cc1cc2ccncc2[nH]1` on Prothrombin (Homo sapiens, UniProt P00734) and write it down. > 4 µM

Sourced from BindingDB's records for doi:10.1021/jm000940u
